biological target: rat adrenergic α1B receptor (Rattus norvegicus); construct: obtained from Wistar Rat liver; from tissue; host or cells: Wistar rat liver; experiment: Adrenergic α1B radioligand binding ([3H]Prozosin); conditions: read-out: Adrenergic α1B, inhibition of ligand binding (1 μM)
Sequence (P15823 whole entry): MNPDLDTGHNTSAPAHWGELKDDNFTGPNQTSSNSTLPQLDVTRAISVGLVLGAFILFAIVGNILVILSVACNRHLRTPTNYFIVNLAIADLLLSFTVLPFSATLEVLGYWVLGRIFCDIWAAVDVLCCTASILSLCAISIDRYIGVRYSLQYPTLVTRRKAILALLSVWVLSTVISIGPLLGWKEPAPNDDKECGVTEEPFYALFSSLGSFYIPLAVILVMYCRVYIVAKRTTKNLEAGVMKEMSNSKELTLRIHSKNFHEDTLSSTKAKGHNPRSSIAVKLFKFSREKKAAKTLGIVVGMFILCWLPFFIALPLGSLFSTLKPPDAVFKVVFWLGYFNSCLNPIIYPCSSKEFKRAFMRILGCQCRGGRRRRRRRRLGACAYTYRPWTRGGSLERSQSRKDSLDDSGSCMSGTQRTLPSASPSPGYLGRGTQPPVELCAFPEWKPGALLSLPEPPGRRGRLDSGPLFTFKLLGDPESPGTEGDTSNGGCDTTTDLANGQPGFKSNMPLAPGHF
endpointLabel: inhibition at 1 µM (%)

[[record]]
molecule = "CN1C2CCC1c1c(n(CCc3ccc(Cl)cc3)c3ccc(Cl)cc13)C2 (stereo not shown) [Compound 58]"
endpointlabel = "inhibition at 1 µM"
unitsofmeasure = "%"
measvalue = 83

[[record]]
molecule = "Cc1ccc2c(c1)c1c(n2CCc2ccccc2)CC2CCC1N2C (stereo not shown) [Compound 2]"
endpointlabel = "inhibition at 1 µM"
unitsofmeasure = "%"
measvalue = 99

[[record]]
molecule = "CN1C2CCC1c1c(n(CCc3ccc(F)cc3)c3ccc(Cl)cc13)C2 (stereo not shown) [Compound 57]"
endpointlabel = "inhibition at 1 µM"
unitsofmeasure = "%"
measvalue = 87

[[record]]
molecule = "Cc1ccc2c(c1)c1c(n2CCc2ccccc2)CC2CCCC1N2C (stereo not shown) [Compound 56]"
endpointlabel = "inhibition at 1 µM"
unitsofmeasure = "%"
measvalue = 80

